Hello, the source for this data is patent US9796696B2, in case you need it.

system tested: DP (Homo sapiens)
Sequence (Q13258 1-359): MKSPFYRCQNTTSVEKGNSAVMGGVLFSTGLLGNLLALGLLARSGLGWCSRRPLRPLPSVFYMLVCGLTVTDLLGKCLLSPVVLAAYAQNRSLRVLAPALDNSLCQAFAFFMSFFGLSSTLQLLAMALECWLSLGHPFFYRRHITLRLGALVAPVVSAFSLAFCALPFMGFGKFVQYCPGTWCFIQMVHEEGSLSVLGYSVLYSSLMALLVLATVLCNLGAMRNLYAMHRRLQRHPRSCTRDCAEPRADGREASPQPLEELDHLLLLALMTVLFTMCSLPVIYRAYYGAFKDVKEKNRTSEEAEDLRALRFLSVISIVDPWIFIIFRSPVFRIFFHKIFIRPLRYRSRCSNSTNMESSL
assay procedure: Other receptors Ca2+ EC50: DP
Assay type: cell-based
condition: NA not defined in the patent
endpoint name: EC50 (nM)

{"compound": "CCCCC[C@@H](O)c1ccc(C2=CCC[C@@H]2CCCc2ccc(C(=O)O)s2)cc1 [drawing 87]", "system tested": "DP (Homo sapiens)", "EC50 (nM)": 9920}
{"compound": "CCCCC[C@H](O)c1ccc(C2=CCC[C@@H]2CCCc2ccc(C(=O)O)s2)cc1 [drawing 86]", "system tested": "DP (Homo sapiens)", "EC50 (nM)": 7740}
